Cited source: patent US9649309B2

- study-target: Tyro3 (Homo sapiens (Human))
- Sequence (Q06418 41-890 limits assumed): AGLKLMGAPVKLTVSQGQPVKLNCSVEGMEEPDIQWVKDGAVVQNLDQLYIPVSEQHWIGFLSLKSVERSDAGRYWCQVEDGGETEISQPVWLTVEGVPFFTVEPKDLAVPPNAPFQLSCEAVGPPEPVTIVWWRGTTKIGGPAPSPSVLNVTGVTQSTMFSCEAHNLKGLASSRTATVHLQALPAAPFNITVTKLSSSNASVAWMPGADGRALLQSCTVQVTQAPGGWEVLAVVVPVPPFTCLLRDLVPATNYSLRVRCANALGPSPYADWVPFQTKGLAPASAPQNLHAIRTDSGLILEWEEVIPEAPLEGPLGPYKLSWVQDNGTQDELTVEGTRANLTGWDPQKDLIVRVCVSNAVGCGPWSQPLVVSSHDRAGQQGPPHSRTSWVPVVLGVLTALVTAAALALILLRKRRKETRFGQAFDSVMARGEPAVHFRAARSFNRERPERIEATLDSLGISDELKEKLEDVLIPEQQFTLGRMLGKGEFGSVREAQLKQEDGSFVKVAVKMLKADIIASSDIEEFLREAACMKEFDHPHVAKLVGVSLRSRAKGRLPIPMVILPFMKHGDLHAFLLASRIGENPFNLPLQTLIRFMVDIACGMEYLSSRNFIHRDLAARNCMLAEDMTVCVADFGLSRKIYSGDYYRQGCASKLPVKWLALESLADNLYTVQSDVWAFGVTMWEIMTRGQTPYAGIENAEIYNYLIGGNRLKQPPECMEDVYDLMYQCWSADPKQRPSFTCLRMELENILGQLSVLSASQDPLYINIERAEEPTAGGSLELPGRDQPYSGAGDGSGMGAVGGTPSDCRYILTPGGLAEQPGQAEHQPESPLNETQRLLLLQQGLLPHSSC
- measurement-conditions: read-out: IC50 Tyro3
pIC50: −log10 of the molar value.
Threshold rule: pIC50 greater than or equal to 6 is TRUE; below that, FALSE.

- compound: "CCCCNc1ncc(-c2ccccn2)c(NCCO)n1 [UNC2997A]"
  group-label: "FALSE"
- compound: "CCCCNc1ncc(-c2cc(SC)nc(C)n2)c(N[C@H]2CC[C@H](O)CC2)n1 [UNC3130A]"
  group-label: "TRUE"
- compound: "CCCCNc1ncc(-c2ccccn2)c(NCCCCCO)n1 [UNC2964A]"
  group-label: "FALSE"
- compound: "CCCCNc1ncc(-c2ccc(NC(=O)C3CC3)cn2)c(NC2CCC(O)CC2)n1 (stereo not drawn) [UNC2711A]"
  group-label: "TRUE"
- compound: "CCCCNc1ncc(C(=O)NC2CCN(CCCc3ccccc3)CC2)c(N[C@H]2CC[C@H](O)CC2)n1 [UNC2801A]"
  group-label: "TRUE"
- compound: "CCCCNc1ncc(-c2ccc(CNC3CC4CCC(C3)N4C)cn2)c(N[C@H]2CC[C@H](O)CC2)n1 (stereo partly drawn) [UNC4165A]"
  group-label: "TRUE"
- compound: "CCCCNc1ncc(-c2ccc(NC(=O)c3ccccc3)cn2)c(NC2CCC(O)CC2)n1 (stereo not drawn) [UNC2713A]"
  group-label: "TRUE"
- compound: "CCCCNc1ncc(C(=O)NCc2ccc(-c3ccc(OC)cc3)nc2)c(N[C@H]2CC[C@H](O)CC2)n1 [UNC4238A]"
  group-label: "TRUE"
- compound: "CCCCNc1ncc(C(=O)NCC2CCN(c3ccccc3)CC2)c(N[C@H]2CC[C@H](O)CC2)n1 [UNC4304A]"
  group-label: "TRUE"

----------
- study-target: Tyro3 (Homo sapiens (Human))
- experimental-protocol: biochemical
Quick reference for log10 of IC50 among some compounds
observable: log10 of IC50 (log10 of the value in nM)

- compound: "CCCCNc1ncc(-c2ccc(CCCN3CCN(C)CC3)cn2)c(N[C@H]2CC[C@H](O)CC2)n1 [UNC2792A]"
  observable: "log10 of IC50"
  readout-value: 1.88
- compound: "CCCCNc1ncc(C(=O)Nc2ccc(CCO)cc2)c(N[C@H]2CC[C@H](O)CC2)n1 [UNC1846A]"
  observable: "log10 of IC50"
  readout-value: 3.03
- compound: "CCCCNc1ncc(-c2cc(NC3CCCCC3)ncn2)c(N[C@H]2CC[C@H](O)CC2)n1 [UNC3194A]"
  observable: "log10 of IC50"
  readout-value: 2.38
- compound: "CCCCNc1ncc(C(=O)NCc2ccncc2)c(N[C@H]2CC[C@H](O)CC2)n1 [UNC1849A]"
  observable: "log10 of IC50"
  readout-value: 3.24
- compound: "CCCCNc1ncc(-c2ccc(CN3CCCN(C)CC3)cn2)c(N[C@H]2CC[C@H](O)CC2)n1 [UNC2405A]"
  observable: "log10 of IC50"
  readout-value: 1.99
- compound: "CCCCNc1ncc(C(=O)NCC2CCN(C3CCCC3)CC2)c(N[C@H]2CC[C@H](O)CC2)n1 [UNC2743A]"
  observable: "log10 of IC50"
  readout-value: 1.92
- compound: "CCCCNc1ncc(C(=O)NCCc2ccc(F)cc2)c(N[C@H]2CC[C@H](O)CC2)n1 [UNC1850A]"
  observable: "log10 of IC50"
  readout-value: 3.08
- compound: "CCCCNc1ncc(-c2ccc(CN3CC(F)(F)C3)o2)c(N[C@H]2CC[C@H](O)CC2)n1 [UNC2900A]"
  observable: "log10 of IC50"
  readout-value: 2.57
